// reported Activity per item
- Test system: Citrobacter freundii
- protocolSummary: Antibacterial activity against non-gentamicin-resistant Citrobacter freundii clinical isolate assessed as susceptible isolates after 18 hrs by agar dilution method
- Format: functional

molecule: CCN[C@@H]1C[C@H](N)[C@@H](O[C@@H]2OC(C(C)N)=CC[C@@H]2N)[C@H](O)[C@H]1O[C@H]1OC[C@](C)(O)[C@H](NC)[C@H]1O (some centres undefined)
Activity (%): 90

molecule: CCN[C@@H]1C[C@H](N)[C@@H](O[C@H]2OC(CN)=CC[C@H]2N)[C@H](O)[C@H]1O[C@H]1OC[C@](C)(O)[C@H](NC)[C@H]1O
Activity (%): 83.3

molecule: CN[C@@H]1[C@@H](O)[C@@H](O[C@@H]2[C@@H](O)[C@H](O[C@@H]3OC(C(C)N)=CC[C@@H]3N)[C@@H](N)C[C@H]2N)OC[C@]1(C)O (some centres undefined)
Activity (%): 72.2

molecule: NCC[C@H](O)C(=O)N[C@@H]1C[C@H](N)[C@@H](O[C@H]2O[C@H](CN)[C@@H](O)[C@H](O)[C@H]2O)[C@H](O)[C@H]1O[C@H]1O[C@H](CO)[C@@H](O)[C@H](N)[C@H]1O
Activity (%): 100
